# Species on record: Rattus norvegicus
# method.notes: Open TG-GATES - Regimen: Daily Repeat
# Assay type: toxicity, organism-based, Sprague-Dawley
# Parameters: regimen Daily Repeat, gender Male, age 6 weeks
# conditions.used: in vivo, po, 300 mg/kg, […], tissue Plasma, route gavage, dose level Middle, time 7 day

compound	display.unit	TC
O=C(N[C@H](CO)[C@H](O)c1ccc([N+](=O)[O-])cc1)C(Cl)Cl	mg/dL	74
O=C(O)c1cccnc1	mg/dL	79.6
CC(C)(S)[C@@H](N)C(=O)O	mg/dL	85.4
CCN1CCCC1CNC(=O)c1cc(S(N)(=O)=O)ccc1OC (centres undefined) [SULPIRIDE]	mg/dL	70.4

###

# Species on record: Rattus norvegicus
# method.notes: Open TG-GATES - Regimen: Single
# Format: toxicity, organism-based, Sprague-Dawley
# Set-up: regimen Single, gender Male, age 6 weeks
# conditions.used: in vivo, po, 0 mg/kg, 9 h, tissue Blood, route gavage, dose level Control

smiles.notation	MCH [pg]
CC(=O)Oc1cc(C(C)C)c(OCCN(C)C)cc1C	21.6
CCc1oc2ccccc2c1C(=O)c1cc(I)c(O)c(I)c1	22.4
CN1C(=O)OC(C)(C)C1=O	20.9
O=C(N[C@H](CO)[C@H](O)c1ccc([N+](=O)[O-])cc1)C(Cl)Cl	21.5
CCSCC[C@H](N)C(=O)O	21.2

###

# Species: Rattus norvegicus
# method.notes: Open TG-GATES - Regimen: Daily Repeat
# Format: toxicity, organism-based, Sprague-Dawley
# Set-up: regimen Daily Repeat, gender Male, age 6 weeks
# conditions.used: in vivo, po, 300 mg/kg, […], tissue Blood, route gavage, dose level Middle, time 28 day
Each record here notes measured RBC.
observed.property: RBC (x10_4/ul)

compound	observed.property	display.unit	observed.result
O=C(O)c1cccnc1	RBC	x10_4/ul	761.2
CC(C)(S)[C@@H](N)C(=O)O	RBC	x10_4/ul	770
CCN1CCCC1CNC(=O)c1cc(S(N)(=O)=O)ccc1OC (centres undefined) [SULPIRIDE]	RBC	x10_4/ul	817
O=C(N[C@H](CO)[C@H](O)c1ccc([N+](=O)[O-])cc1)C(Cl)Cl	RBC	x10_4/ul	768.8

###

Each record here notes measured PL.
# Species on record: Rattus norvegicus
# method.notes: Open TG-GATES - Regimen: Daily Repeat
# Assay type: toxicity, organism-based, Sprague-Dawley
# Design: regimen Daily Repeat, gender Male, age 6 weeks
# conditions.used: in vivo, po, 100 mg/kg, 72 h, tissue Plasma, route gavage, dose level Low, time 3 day

molecule	PL [mg/dL]
O=C(O)c1cccnc1	163.8
CCN1CCCC1CNC(=O)c1cc(S(N)(=O)=O)ccc1OC (centres undefined) [SULPIRIDE]	142.2
O=C(N[C@H](CO)[C@H](O)c1ccc([N+](=O)[O-])cc1)C(Cl)Cl	146.8
CC(C)(S)[C@@H](N)C(=O)O	156

###

# Species: Rattus norvegicus
# method.notes: Open TG-GATES - Regimen: Daily Repeat
# Assay type: toxicity, organism-based, Sprague-Dawley
# Parameters: regimen Daily Repeat, gender Male, age 6 weeks
# conditions.used: in vivo, po, 0 mg/kg, 72 h, tissue Blood, route gavage, dose level Control, time 3 day
Each record here notes measured PT.

compound	display.unit	PT
CC(C)C(=O)Nc1ccc([N+](=O)[O-])c(C(F)(F)F)c1 [FLUTAMIDE]	s	12.4
CN1C(=O)OC(C)(C)C1=O [TRIMETHADIONE]	s	13.3
O=C(N[C@H](CO)[C@H](O)c1ccc([N+](=O)[O-])cc1)C(Cl)Cl [CHLORAMPHENICOL]	s	14.4
C[C@]12CCC(=O)C=C1CC[C@@H]1[C@@H]2CC[C@@]2(C)[C@H]1CC[C@]2(C)O [METHYLTESTOSTERONE]	s	12.9
